FYI, the data here is from PubChem BioAssay (NCI).

Assay: NCI Yeast Anticancer Drug Screen. Data for the mlh1 rad18 strain (AID 175)
Details: S. cerevisiae mlh1 rad18 strain growth inhibition; at 50.0 µM; stronger effect = higher value
Protocol: Growth inhibition of yeast strains with defined genetic alterations is measured as a screen for potential anti-cancer activity. Selected strains with alterations in DNA damage repair or cell cycle control were exposed to compounds and growth inhibition was measured relative to vehicle treated controls. The strain used in this assay is mlh1 rad18
Compounds without any hit were thinned out: in the full panel of roughly 79,000, 15% have a hit. Where a SMILES comes first, the peptide text is derived from it. [ ]: non-standard residue; d: D form. The star is where a group is joined. ξ: configuration not given here. NMeY = CN[C@@H](Cc1ccc(O)cc1)C(=O)O; Cbz = O=C(OCc1ccccc1)*; ξA = CC(N)C(=O)O
measurementKind: growth inhibition (%)
Kindly answer with a numeric value in %, unit omitted.

molecule: C#[N+]CCOP(=O)(OCC1OC(n2cc(C)c(=O)[nH]c2=O)CC1N=[N+]=[N-])O[C@H]1CC[C@@]2(C)C(=CC[C@H]3[C@@H]4CC[C@H](C(C)CCCC(C)C)[C@@]4(C)CC[C@@H]32)C1 (stereo not given in full)
growth inhibition, %: -17.4
//
molecule: Cc1ccc(C)c(CNC(=O)Nc2ccccc2Cl)c1
growth inhibition, %: -18.2
//
molecule: CC(=O)c1c(N)n(C)c(=O)n(C)c1=O
growth inhibition, %: 17.4
//
molecule: C/C=C(\Cl)C=O
growth inhibition, %: 11.2
//
molecule: CCCCCC/C=N/Nc1ccc([N+](=O)[O-])cc1[N+](=O)[O-]
growth inhibition, %: -4.9
//
molecule: CC(C)c1ccc(OC(=O)N(c2ccccc2)c2ccccc2)cc1
growth inhibition, %: -2.8
//
molecule: COc1cc2c(c(OC)c1OC)C(=O)[C@@H](O)[C@H]2N
growth inhibition, %: -41.5
//
molecule: CN1CCC(C(=O)NNc2ccccc2)CC1
growth inhibition, %: 4.7
//
molecule: Cc1ccc(Cc2cc(=O)[nH]c(=O)[nH]2)cc1
growth inhibition, %: 5.4
//
molecule: CC1CCC(C(C)C)/C(=N\O)C1 (stereo not given)
growth inhibition, %: 2.05

Query: Query (molecule): CCN(CC)C(=O)C1C(C=C(C)C)C1(C)C (stereo not given) ; field requested: growth inhibition
Reply: 7.55

Query: Consider the molecule shown here: C#CC1(O)CCC2[C@@H]3CCc4cc(Oc5nc(F)nc(-c6c7ccccc7cn6C)n5)ccc4C3CC[C@@]21C (stereo not given in full) What is its recorded growth inhibition?
Reply: 42.8

Query: Please look up its growth inhibition: O=C1CN(C(=O)Nc2ccccc2)c2ccccc2N1
Reply: -5.5

Query: Bench note: what growth inhibition did FC1C2=C(SC1(F)F)C1CCC2C1 (stereo not given) show?
Reply: 12.9

Query: Record request: growth inhibition value, item CCCCCCc1ccccn1
Reply: 17.8

Query: Give its growth inhibition value. Item: Nc1cc(Cl)c(F)cc1Cl
Reply: -14.2

Query: Requested read-out: growth inhibition. Entry: Nc1nc(C(=O)O)c(N=Nc2ccccc2)c(=O)[nH]1
Reply: -20.8

Query: Would you mind telling me what growth inhibition value was observed for CC(=O)OC(OC(C)=O)c1cccc2ccccc12 ?
Reply: -3.9

Query: What does the data say about its growth inhibition? Entry: c1ccc2c(-c3cnc(-c4ccc(-c5ncc(-c6cccc7ccccc67)o5)cc4)o3)cccc2c1
Reply: -16.4

Query: Fill in the blank: the reported growth inhibition of CCCCCCOC(=O)CCCCCC1CCCCC1 is ____.
Reply: -6.55

Query: Record request: growth inhibition value, item NC(=O)NC1CCCCCCC1
Reply: 0.3

Query: Given the entry COc1ccc(C[C@@H](C(=O)N[C@@H](C)C(N)=O)N(C)C(=O)[C@@H]2CCCN2C(=O)[C@H](CC(C)C)NC(=O)C(C)NC(=O)OCc2ccccc2)cc1 (stereo not given in full) (Cbz-[ξA]LP[NMeY](Me)A-NH2) , report its measured growth inhibition.
Reply: -44.2

Query: Reported growth inhibition, molecule O=C1OCCC1=P(c1ccccc1)(c1ccccc1)c1ccccc1 : ____
Reply: -4.85

Query: Quick one: growth inhibition of CCOC(=O)c1c(C)csc1NC(=O)CSCC(=O)OC ?
Reply: 31.6

Query: So what's the measured growth inhibition for this one? CNC(=O)Sc1ccc(C)c([N+](C)(C)C)c1
Reply: 18.5

Query: Value lookup for growth inhibition; key = O=C(CN1CCN(c2ccccc2)CC1)n1nnc2ccccc21
Reply: -6

Query: Consider the molecule COC(=O)C1=C(C(=O)OC)C2(C3C(SC)=CC(C)(C)CC3S1)N(Cc1ccccc1)CCN2Cc1ccccc1 (stereo not given) and give its measured growth inhibition.
Reply: -27.2

Query: What measured growth inhibition goes with O=c1[nH]c(=O)n(C2CC3OCC3O2)cc1F (stereo not given) ?
Reply: 11.2

Query: State the recorded growth inhibition for this entry: CCCC(C)C(=O)OC(C)CC(C)C (stereo not given)
Reply: 15.6

Query: Any idea what growth inhibition was measured for CCCCS(=O)(=O)Nc1cccc(C(=O)O)c1 ?
Reply: -7.15

Query: Endpoint output: growth inhibition of C[N+]1(C(CO)Cc2c[nH]c3ccccc23)Cc2ccccc2C1 (stereo not given) . Value?
Reply: -5.7

Query: Data request, read-out growth inhibition, for CCOC(=O)C/C(C)=N\NC(N)=O
Reply: 42.8

Query: What growth inhibition value was documented for this molecule, CC(=O)N(C)c1ccc(NC(=O)/C=C/c2ccccc2)cc1 ?
Reply: 17.1

====

Assay: NCI Yeast Anticancer Drug Screen. Data for the sgs1 mgt1 strain (AID 161);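 also: 0% = growth of cultures given vehicle only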
Settings: S. cerevisiae sgs1 mgt1 strain, at 50.0 µM, stronger effect = higher value
Compounds without any hit were thinned out: in the full panel of roughly 79,000, 15% have a hit.
Mark criterion met for reported growth inhibition of -10% or greater; mark criterion not met for anything smaller.

Worked cases, answers included:
compound: C[n+]1nc2ccccc2c(=Nc2ccccc2[N+](=O)[O-])[n-]1
assignedClass: criterion met
--
compound: COC(=O)CC1OCC=C2CN3CCC45C6=CC(=O)C(=O)C([N+](=O)[O-])=C6NC4C1C2CC35 (stereo not given)
assignedClass: criterion not met
--
compound: CCC1(O)C(=O)c2ccccc2N(c2ccccc2)C1=O (stereo not given)
assignedClass: criterion met
--
compound: C=C(CC(=O)NN)C(=O)NN
assignedClass: criterion not met
--
compound: CC(CN(C)C)Oc1ccc2c(c1)C(=O)C(C)C2 (stereo not given)
assignedClass: criterion met

Query: API: above_or_equal(metric=growth inhibition, cutoff=-10%) for item CCCCN(C(=O)CCC)c1ccccc1
Reply: criterion not met

Query: State whether the measured growth inhibition reaches -10%, counting equality as reaching it, for CCn1c(=NC(=O)c2ccccc2O)sc2ccccc21
Reply: criterion met

Query: Tell me whether growth inhibition is at least -10% here: O=C1c2ccccc2C(O)N1CCc1c[nH]c2ccccc12 (stereo not given)
Reply: criterion not met

Query: Item O=C(c1ccccc1)c1ccc2ccc(F)cc2c1C(=O)O with growth inhibition of -10% or above?
Reply: criterion met

Query: growth inhibition >= -10% for O=C(Nc1ccn(CCOC(=O)c2ccccc2)c(=O)n1)c1ccccc1 ?
Reply: criterion met

====

Assay: NCI Yeast Anticancer Drug Screen. Data for the bub3 strain (AID 167)
Details: S. cerevisiae bub3 mutant strain, at 50.0 µM, stronger effect = higher value
This is part of a sample that, as a whole, favours compounds with a hit. Of some 79,000 tested, about 15% had one in any assay. Calls of active or inactive are those of the source. Cut-off read from the data, not from the text of the source: active = growth inhibition above about 70%; inactive = the rest.
// reported growth inhibition per item

Below, 6 compounds whose answers are already recorded.
compound: N=c1nc2ccc3ccccc3c2nn1-c1ccc([N+](=O)[O-])cc1
growth inhibition: 18.6% (inactive)
//
compound: CC(=O)c1c[nH]c(=O)c2cc3c(cc12)OCO3
growth inhibition: 12.8% (inactive)
//
compound: CC(=O)O[C@H]1[C@@H]2[C@@H]3[C@@H](C[C@H]1C)[C@@H](C)CO[C@@]1(C)CC/C=C(/C)C[C@@H]2O[C@@H]31
growth inhibition: -12.8% (inactive)
//
compound: NC(=O)CCC(NS(=O)(=O)c1ccc(NC(=O)c2ccccc2)cc1)C(=O)O (stereo unspecified)
growth inhibition: -5.7% (inactive)
//
compound: CCN(CC)c1ccc(N=Nc2nc(Cl)c(/C=C3\C(=O)c4ccccc4C3=C(C#N)C#N)s2)c(NC(C)=O)c1
growth inhibition: -12.8% (inactive)
//
compound: O=C(NCN1CCOCC1)Nc1ccc(Cl)cc1
growth inhibition: 8.75% (inactive)

Query: growth inhibition; subject: CC1=NNC(=O)CC1C(O)c1ccccc1 (stereo unspecified)
Reply: -8.45% (inactive)

Query: Which growth inhibition value is on record for CC1=C(c2ccc(C)cc2)NC(=S)C(C)C(c2ccc(C)cc2)=N1 (stereo unspecified) ?
Reply: 0.95% (inactive)

====

Assay: NCI Yeast Anticancer Drug Screen. Data for the mlh1 rad18 strain (AID 175)
Conditions: S. cerevisiae mlh1 rad18 strain growth inhibition; at 50.0 µM; stronger effect = higher value
Compounds without any hit were thinned out: in the full panel of roughly 79,000, 15% have a hit.
Attribute: growth inhibition
State just the number; it will be interpreted in %.

For orientation, consider the following solved cases.
molecule: c1ccc(-c2cccc(-c3ccccc3)n2)cc1
measuredNumber: 28.7
--
molecule: CC1(C)CC(=O)C2=C(C1)NC(SSC1=C(C#N)C(c3ccc(F)cc3)C3=C(CC(C)(C)CC3=O)N1)=C(C#N)C2c1ccc(F)cc1 (stereo not drawn)
measuredNumber: -25.8

Now let's try a different one.
Query: Which growth inhibition value belongs to COc1ccc2c(c1)C(Cc1ccc(Oc3cc(CC4c5cc(OC)ccc5CC[N+]4(C)C)ccc3OC)cc1)[N+](C)(C)CC2 (stereo not drawn) ?
Reply: -12.2
